Where do these numbers come from? They come from BigSolDB 2.1.

# ASSAY CONTEXT: in ethyl acetate, 293.15 K

- MOL SMILES: "O=C[C@H](O)[C@H](O)[C@H](O)CO"
  solubility (mole fraction): 0.00107

----------
# ASSAY CONTEXT: in n-butanol, 303.15 K

- MOL SMILES: "O=C[C@H](O)[C@H](O)[C@H](O)CO"
  solubility (mole fraction): 0.00814

----------
# ASSAY CONTEXT: in n-butanol, 293.15 K
READOUT LABEL: solubility (mole fraction)

- MOL SMILES: "O=C[C@H](O)[C@H](O)[C@H](O)CO"
  VAL: 0.00485

----------
# ASSAY CONTEXT: in acetone, 283.15 K

- MOL SMILES: "O=C[C@H](O)[C@H](O)[C@H](O)CO"
  solubility (mole fraction): 0.00234

----------
# ASSAY CONTEXT: in isopropanol, 323.15 K

- MOL SMILES: "O=C[C@H](O)[C@H](O)[C@H](O)CO"
  solubility (mole fraction): 0.0426

----------
# ASSAY CONTEXT: in n-propanol, 303.15 K
READOUT LABEL: solubility (mole fraction)

- MOL SMILES: "O=C[C@H](O)[C@H](O)[C@H](O)CO"
  VAL: 0.0112

----------
# ASSAY CONTEXT: in isobutanol, 323.15 K

- MOL SMILES: "O=C[C@H](O)[C@H](O)[C@H](O)CO"
  solubility (mole fraction): 0.0156

----------
# ASSAY CONTEXT: in isobutanol, 293.15 K
READOUT LABEL: solubility (mole fraction)

- MOL SMILES: "O=C[C@H](O)[C@H](O)[C@H](O)CO"
  VAL: 0.00421

----------
# ASSAY CONTEXT: in acetone, 323.15 K

- MOL SMILES: "O=C[C@H](O)[C@H](O)[C@H](O)CO"
  solubility (mole fraction): 0.0118

----------
# ASSAY CONTEXT: in acetonitrile, 303.15 K

- MOL SMILES: "O=C[C@H](O)[C@H](O)[C@H](O)CO"
  solubility (mole fraction): 0.0022

----------
# ASSAY CONTEXT: in dichloromethane, 288.15 K
READOUT LABEL: solubility (mole fraction)

- MOL SMILES: "O=C[C@H](O)[C@H](O)[C@H](O)CO"
  VAL: 0.000257
